# STUDY_TARGET: BCL6 (Homo sapiens)
# Construct: endogenous in cells; host or cells: T47D breast cancer epithelial cells
# MEASUREMENT_NOTES: Immunofluorescence protocol for high content imaging of BCL6 (degradation) in T47D cells, 3 days compound treatment
# Format: cell-based
# CONDITION_SET: T47D cells, 3 days compound treatment, read-out: Mean DC50 (nM)* category
DC50 values, listed per item

Below are worked cases with known answers.
MOLECULE: CNC(=O)COc1cc2cc(Nc3nc(N4CCN(CC5CCN(c6ccc7c(c6F)CN(C6CCC(=O)NC6=O)C7=O)CC5)CC4)ncc3Cl)ccc2n(C(C)C)c1=O (centres unmarked)
DC50: < 10 nM
//
MOLECULE: CNC(=O)COc1cc2cc(Nc3nc(N4CCC5(CC4)CC(C(C)(C)N4CCC(c6cccc7c6CN(C6CCC(=O)NC6=O)C7=O)CC4)C5)ncc3Cl)ccc2n(C(C)C)c1=O (centres unmarked)
DC50: ≥ 100 nM
//
MOLECULE: CNC(=O)COc1cc2cc(Nc3nc(N4CCC(OC5CN([C@H]6CC[C@H](c7ccc8c(c7F)CN(C7CCC(=O)NC7=O)C8=O)CC6)C5)CC4)ncc3Cl)ccc2n(C(C)C)c1=O (some centres unmarked)
DC50: < 10 nM
//
MOLECULE: CNC(=O)COc1cc2cc(Nc3nc(N4CCCCC4)ncc3Cl)ccc2n(CCOc2ccc3c(c2)C(=O)N(C2CCC(=O)NC2=O)C3=O)c1=O (centres unmarked)
DC50: 10 to 50 nM

Continue with the molecule presented below.
Prompt: Record lookup: for BCL6 (Homo sapiens), what DC50 belongs to CNC(=O)COc1cc2cc(Nc3nc(N4CCC[C@H](COc5cccc6c5C(=O)N(C5CCC(=O)NC5=O)C6=O)C4)ncc3Cl)ccc2n(CCN(C)C)c1=O (some centres unmarked) ?
Response: ≥ 100 nM

---

# STUDY_TARGET: BCL6 (Homo sapiens, UniProt P41182)
# Construct: endogenous in cells; host or cells: T47D breast cancer epithelial cells
# MEASUREMENT_NOTES: Immunofluorescence protocol for high content imaging of BCL6 (degradation) in T47D cells, 3 days compound treatment
# Format: cell-based
# CONDITION_SET: T47D cells, 3 days compound treatment, read-out: Mean Dmax (%)** category
In this section, each of the compounds is paired with its reported Dmax.

Recorded Dmax, per entry:
COMPOUND: CNC(=O)COc1cc2cc(Nc3nc(N4CCC(O[C@H]5C[C@H](N6CCC(c7ccc8c(c7OC)CN(C7CCC(=O)NC7=O)C8=O)CC6)C5)CC4)ncc3Cl)ccc2n(C(C)C)c1=O (some centres unmarked)
RESULT_VALUE: 50 to 70%
//
COMPOUND: CNC(=O)COc1cc2cc(Nc3nc(N4CCOC5(CN(CCC6CCN(c7cccc8c7C(=O)N(C7CCC(=O)NC7=O)C8=O)CC6)C5)C4)ncc3Cl)ccc2n(C(C)C)c1=O (centres unmarked)
RESULT_VALUE: ≥ 70%
//
COMPOUND: CNC(=O)COc1cc2cc(Nc3nc(N4CCC(OC5CN([C@H]6CC[C@@H](c7ccc8c(c7Cl)CN(C7CCC(=O)NC7=O)C8=O)CC6)C5)CC4)ncc3Cl)ccc2n(C(C)C)c1=O (some centres unmarked)
RESULT_VALUE: < 50%
//
COMPOUND: CNC(=O)COc1cc2cc(Nc3nc(N4CCC(OC5CCC(N6CCC(c7cccc8c7C(=O)N(C7CCC(=O)NC7=O)C8=O)CC6)C5)CC4)ncc3Cl)ccc2n(C(C)C)c1=O (centres unmarked)
RESULT_VALUE: < 50%

Prompt: Tell me the measured Dmax of CNC(=O)COc1cc2c(F)c(Nc3nc(N4CCC(O[C@H]5C[C@H](N6CCC(c7ccc8c(c7F)CN(C7CCC(=O)NC7=O)C8=O)CC6)C5)CC4)ncc3Cl)ccc2n(C(C)C)c1=O (some centres unmarked) , please.
Response: ≥ 70%
